- System Name: human TGR5 (Homo sapiens, UniProt Q8TDU6)
- Sequence (Q8TDU6 whole entry): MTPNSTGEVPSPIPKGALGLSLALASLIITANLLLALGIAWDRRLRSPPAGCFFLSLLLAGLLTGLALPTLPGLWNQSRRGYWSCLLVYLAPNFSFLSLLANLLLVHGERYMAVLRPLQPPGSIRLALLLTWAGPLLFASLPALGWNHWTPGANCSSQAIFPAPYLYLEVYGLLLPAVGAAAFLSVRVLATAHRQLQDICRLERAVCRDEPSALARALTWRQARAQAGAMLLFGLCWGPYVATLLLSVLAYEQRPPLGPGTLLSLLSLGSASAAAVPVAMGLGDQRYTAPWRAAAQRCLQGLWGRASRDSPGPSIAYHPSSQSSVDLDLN
- Test Protocol: cAMP production increasing activity in human TGR5 expressing CHO cells
- Condition Set: read-out: EC50 value (concentration necessary to make the cAMP production amount 50%)
So I've got a bunch of molecules here, and I need their EC50 values.

Field: EC50. Fill in for each record below.
1. Cc1cc(C(=O)N2Cc3ccccc3N(CC(C)C)C(=O)C2CC(=O)NCc2ccccc2F)ccn1 (stereo not shown) [Example 23B]
2. CC(=O)NCc1cccc(C2OC(CC(=O)NCC3CCCCCC3)C(=O)N(CC(C)(C)C)c3ccc(Cl)cc32)c1 (stereo not shown)
3. COC(=O)NCc1cccc(C2OC(CC(=O)NCc3ccccc3F)C(=O)N(CC(C)(C)COC(C)=O)c3ccc(Cl)cc32)c1 (stereo not shown)
4. COC(=O)NCc1cccc(C2OC(CC(=O)NCc3ccccc3F)C(=O)N(CC(C)C)c3ccc(Cl)cc32)c1 (stereo not shown)
5. CC(=O)NCc1cccc(C2OC(CC(=O)NCc3ccccc3C(F)(F)F)C(=O)N(CC(C)(C)C)c3ccc(Cl)cc32)c1 (stereo not shown)
6. CC(C)(C)CN1C(=O)C(CC(=O)NCc2ccccc2F)OC(c2cccc(Cn3ccnc3)c2)c2cc(Cl)ccc21 (stereo not shown)
7. O=S(=O)(c1cc(C(F)(F)F)cc(C(F)(F)F)c1)N1CCCOc2nccc(-c3ccc(F)cc3)c2C1 [Example 60C]

[reply]
["< 100 nM", "< 100 nM", "< 100 nM", "< 100 nM", "< 100 nM", "< 100 nM", "< 100 nM"]
